B1: RIT1 (parent)
chain: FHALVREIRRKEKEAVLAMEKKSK

# Variants of: B1
# protocol_notes: protein stability index of a GFP-peptide fusion (GPS, HEK-293T) (PSI 1-6); higher = more stable;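 further: lentivirally expressed fusions sorted by FACS into six bins by GFP to DsRed ratio, PSI derived from sequencing read proportions per bin multiplied by bin number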
# study_conditions: c terminus: a fixed tail appended
endpoint_name: protein stability index
Write the value as a bare number.

Consider the variant `R6L` and give its measured protein stability index.
1.55

// next record `K24C`
2.24

Now look at this entry.
Consider the variant `A15R` and give its measured protein stability index.
1.72
